# Assay Explanation: Biodistribution of F-18 bombesin analogs in nude mice bearing human prostate cancer PC-3
# Protocol Conditions: nude, mouse, tumor/muscle, 135 kBq per animal, total radioactivity
Starred links: 1 amine or outer side, 2 acyl side, 3 side chain; linkers in the order of their positions; H or OH if unused. Non-standard residues stand in square brackets, D forms with d. Residues, ends and D or L forms follow the SMILES beside them. *: point of attachment. γ4hIle = CC[C@H](C)[C@@H](CCC(=O)[*:2])N[*:1]; Benzoyl(3-CN,4-F) = N#Cc1cc(C(=O)*)ccc1F; Ava = NCCCCC(=O)O
Readout Name: tissue to tissue ratio at 1 h
API doc: respond with a numeric literal and nothing else, no unit.

Input line: Look up tissue to tissue ratio at 1 h: CC[C@H](C)[C@@H](CCC(=O)N[C@@H](CC(C)C)C(N)=O)NC(=O)[C@H](Cc1c[nH]cn1)NC(=O)CNC(=O)[C@@H](NC(=O)[C@H](C)NC(=O)[C@H](Cc1c[nH]c2ccccc12)NC(=O)[C@H](CCC(N)=O)NC(=O)CCCCNC(=O)c1ccc(F)c(C#N)c1)C(C)C ({Benzoyl(3-CN,4-F)-Ava}-QWAVGH[γ4hIle]L-NH2)
Output line: 60
